Can you tell me MIC for the items I'm about to list?
- Tested on: Mycobacterium tuberculosis
- assay-comment: Antimycobacterial activity against Mycobacterium tuberculosis H37Rv after 3 to 7 days by rapid direct susceptibility test
- Format: functional

Query: Field: MIC (Mycobacterium tuberculosis). Entry: Cc1ccc2c(c1)/C(=N\O)C(=O)N2CCCN1CCN(c2cc3c(cc2F)c(=O)c(C(=O)O)cn3C2CC2)CC1
Response: 0.1 to 64 µg/mL

Query: Now try COc1c(N2C[C@@H]3CCCN(Cc4cn(CCN5C(=O)/C(=N/O)c6ccccc65)nn4)[C@@H]3C2)c(F)cc2c(=O)c(C(=O)O)cn(C3CC3)c12 .
Response: 0.1 to 0.78 µg/mL

Query: Now try COc1c(N2C[C@@H]3CCCN(Cc4cn(CCN5C(=O)/C(=N/NC(N)=O)c6cc(Br)ccc65)nn4)[C@@H]3C2)c(F)cc2c(=O)c(C(=O)O)cn(C3CC3)c12 .
Response: 0.1 to 0.78 µg/mL

###

Can you tell me IC50 for the items I'm about to list?
- Tested on: HeLa
- assay-comment: Anticancer activity against human HeLa cells after 48 hrs by MTT assay
- Type: functional, cell-based

Query: I am curious: what IC50 value has been reported for CC1CN(c2c(F)c(N)c3c(=O)c(C(=O)O)cn(C4CC4)c3c2F)CC(C)N1CN1C(=O)/C(=N\c2ccc(S(=O)(=O)Nc3ncccn3)cc2)c2ccccc21 (stereo not given) ?
Response: 18.3 to 50 µg/mL

Query: Now try COc1cc(Cc2cnc(/N=C3\C(=O)N(CN4C(C)CN(c5c(F)c(N)c6c(=O)c(C(=O)O)cn(C7CC7)c6c5F)CC4C)c4ccccc43)nc2N)cc(OC)c1OC (stereo not given) .
Response: 18.3 to 50 µg/mL

Query: Now try CC1CN(c2c(F)c(N)c3c(=O)c(C(=O)O)cn(C4CC4)c3c2F)CC(C)N1CN1C(=O)C(=O)c2ccccc21 (stereo not given) .
Response: 18.3 to 50 µg/mL

Query: Now try Cc1cc(C)nc(NS(=O)(=O)c2ccc(/N=C3\C(=O)N(CN4C(C)CN(c5c(F)c(N)c6c(=O)c(C(=O)O)cn(C7CC7)c6c5F)CC4C)c4ccccc43)cc2)n1 (stereo not given) .
Response: 18.3 to 50 µg/mL

Query: Now try COc1ncnc(NS(=O)(=O)c2ccc(/N=C3\C(=O)N(CN4C(C)CN(c5c(F)c(N)c6c(=O)c(C(=O)O)cn(C7CC7)c6c5F)CC4C)c4ccccc43)cc2)c1OC (stereo not given) .
Response: 18.3 to 33.6 µg/mL

###

Can you tell me MIC for the items I'm about to list?
- System: Mycobacterium tuberculosis
- assay-comment: Antimycobacterial activity against Mycobacterium tuberculosis H37Rv after 3 to 7 days by rapid direct susceptibility test
- Assay type: functional
Give the value in µg/mL but do not write µg/mL after it.

Query: Field: MIC (Mycobacterium tuberculosis). Entry: COc1c(N2CCNC(C)C2)c(F)cc2c(=O)c(C(=O)O)cn(C3CC3)c12 (configuration not stated) [GATIFLOXACIN]
Response: 0.5

Query: Now try CO/N=C1/C(=O)N(CCn2cc(CN3CCC[C@H]4CN(c5c(F)cc6c(=O)c(C(=O)O)cn(C7CC7)c6c5OC)C[C@H]43)nn2)c2ccccc21 .
Response: 0.1

Query: Now try CO/N=C1/C(=O)N(CCn2cc(CN3CCC[C@H]4CN(c5c(F)cc6c(=O)c(C(=O)O)cn(C7CC7)c6c5OC)C[C@H]43)nn2)c2ccc(Br)cc21 .
Response: 0.1

Query: Now try CO/N=C1/C(=O)N(CCCN2CCN(c3c(F)cc4c(=O)c(C(=O)O)cn(C5CC5)c4c3OC)CC2C)c2ccc(F)cc21 (configuration not stated) .
Response: 0.25

Query: Now try COc1c(N2C[C@@H]3CCCN[C@@H]3C2)c(F)cc2c(=O)c(C(=O)O)cn(C3CC3)c12 [MOXIFLOXACIN] .
Response: 0.1
